assay_remarks: physchem
condition_parameters: phosphate buffered saline, pH 7.4
Description: Intrinsic solubility of the compound in phosphate buffered saline at pH 7.4 by shake-flask method
readout: solubility thermodynamic (µg/mL)

Solved entries (count: 6):
• O=C(N[C@@H]1CCC[C@H](O)C1)c1noc(-c2ccc(Cl)c(F)c2)c1Cl = 2
• O=C(N[C@@H]1CCC[C@H](O)C1)c1onc(-c2ccc(Cl)c(F)c2)c1Cl = 11
• O=C(NC1CCCC1)c1noc(-c2ccc(C(F)(F)F)cc2)c1CO = 1
• O=C(NC1CCCC1)c1noc(-c2ccc(C(F)(F)F)cc2)c1C(=O)O = 72
• CC(C)NCc1c(C(=O)NC2CCCC2)noc1-c1ccc(C(F)(F)F)cc1 = 13
• CCNC(=O)c1c(C(=O)NC2CCCC2)noc1-c1ccc(C(F)(F)F)cc1 = 1.6

a. CCOc1cc(Cl)ccc1-c1onc(C(=O)N[C@@H]2CCC[C@H](O)C2)c1C
b. O=C(N[C@@H]1CCC[C@H](O)C1)c1noc(-c2ccc(C(F)(F)F)cc2)c1CO
Inquiry: Kindly compare a with b and tell me which has the lower solubility thermodynamic figure. I would appreciate it if you answered with the label of your choice.
Reply text: a

a. CCOc1cc(Cl)ccc1-c1onc(C(=O)NC2CCC(O)CC2)c1C (stereo not given)
b. CC(C)NCc1c(C(=O)N[C@@H](C)C(C)C)noc1-c1ccc(C(F)(F)F)cc1
c. CC(C)NCc1c(C(=O)N[C@H](C)C(C)C)noc1-c1ccc(C(F)(F)F)cc1
Inquiry: Sort by solubility thermodynamic, descending. Note for the reader: the ranking is given by listing the labels in the order requested.
Reply text: a, c, b
(a: 28 µg/mL, c: 12 µg/mL, b: 4 µg/mL)

I. Cc1c(C(=O)N[C@@H]2CCC[C@H](O)C2)noc1-c1ccc(C(F)(F)F)c(F)c1
II. O=C(N[C@@H]1CCC[C@H](O)C1)c1onc(-c2ccc(F)cc2)c1Cl
Inquiry: Kindly compare I with II and tell me which has the lower solubility thermodynamic figure. I would appreciate it if you answered with the label of your choice.
Reply text: I

I. O=C(N[C@@H]1CCC[C@H](O)C1)c1noc(-c2ccc(Cl)cc2)c1Cl
II. CC[C@H](CO)NC(=O)c1noc(-c2ccc(C(F)(F)F)cc2)c1CO
Inquiry: Larger number for solubility thermodynamic: I , or II ? I would appreciate it if you answered with the label of your choice.
Reply text: II

These data points were gathered from ChEMBL document CHEMBL1806385.
